Source: the supplement of paper PMC10567573

B1: NFE2L1 (parent)
chain: TLDGYGIHPKSIDLDNYFTARRLL

Variants of: B1
assay info: protein stability index of a GFP-peptide fusion (GPS, HEK-293T) (PSI 1-6); higher = more stable;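 further: lentivirally expressed fusions sorted by FACS into six bins by GFP to DsRed ratio, PSI derived from sequencing read proportions per bin multiplied by bin number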
setup conditions: c terminus: a fixed tail appended
Rule: protein stability index under 2 gives f, otherwise t.

# polymer sequence, answer label
records = [
    ("TLDMYGIHPKSIDLDNYFTARRLL [G4M]", "t"),
    ("TLDGYGIHPESIDLDNYFTARRLL [K10E]", "f"),
    ("TLDGYGIGPKSIDLDNYFTARRLL [H8G]", "f"),
    ("TLDGYGIHPKSIDLDNYFTANRLL [R21N]", "f"),
    ("TLDGYGIHCKSIDLDNYFTARRLL [P9C]", "f"),
    ("TLDGYGIPPKSIDLDNYFTARRLL [H8P]", "f"),
    ("TLDGYGIHPKSIDLDNYDTARRLL [F18D]", "t"),
    ("TLDGVGIHPKSIDLDNYFTARRLL [Y5V]", "t"),
    ("TLDGYGCHPKSIDLDNYFTARRLL [I7C]", "t"),
    ("TLDGYGIHPKSIDLDNYFGARRLL [T19G]", "f"),
    ("TLDGYGIHPKSGDLDNYFTARRLL [I12G]", "t"),
    ("TQDGYGIHPKSIDLDNYFTARRLL [L2Q]", "f"),
    ("TLDGYGIHPKSIDLDNYFTARYLL [R22Y]", "f"),
    ("TLDGYGIHPKSIDGDNYFTARRLL [L14G]", "t"),
    ("TLDYYGIHPKSIDLDNYFTARRLL [G4Y]", "f"),
    ("TLDGYGIHPKSIDLDNYFTARVLL [R22V]", "f"),
    ("TLDGYCIHPKSIDLDNYFTARRLL [G6C]", "f"),
    ("TLDGYGIHPKSIDLDFYFTARRLL [N16F]", "t"),
    ("TLDGYGIHPKSIYLDNYFTARRLL [D13Y]", "f"),
    ("TLDGYGIHPKSCDLDNYFTARRLL [I12C]", "t"),
    ("ELDGYGIHPKSIDLDNYFTARRLL [T1E]", "f"),
    ("ALDGYGIHPKSIDLDNYFTARRLL [T1A]", "t"),
    ("TLDGYGIHPKSIDLDNYFTFRRLL [A20F]", "f"),
    ("TLDGYGIHPKSIDLDNYFTAGRLL [R21G]", "t"),
    ("TLDGYGIHPKSIDLDSYFTARRLL [N16S]", "t"),
    ("LLDGYGIHPKSIDLDNYFTARRLL [T1L]", "f"),
    ("TLDGYGIHPKSIDYDNYFTARRLL [L14Y]", "t"),
    ("TLDGYMIHPKSIDLDNYFTARRLL [G6M]", "f"),
    ("TLDGYGIHPKSEDLDNYFTARRLL [I12E]", "t"),
    ("TSDGYGIHPKSIDLDNYFTARRLL [L2S]", "f"),
    ("TLDGYGIHPKSIDLKNYFTARRLL [D15K]", "f"),
    ("TLDGYYIHPKSIDLDNYFTARRLL [G6Y]", "f"),
    ("TLDGYGIHPKSADLDNYFTARRLL [I12A]", "f"),
    ("TLDGYGIHPKSIDVDNYFTARRLL [L14V]", "f"),
    ("TLDGYGIHPKSIDLDNYFTQRRLL [A20Q]", "t"),
    ("TLDGYGIHPKSIDLDNYLTARRLL [F18L]", "f"),
    ("TLDGYGIHPKSITLDNYFTARRLL [D13T]", "t"),
    ("TLDGYGIHPKSIDADNYFTARRLL [L14A]", "t"),
    ("TLDGYGIHRKSIDLDNYFTARRLL [P9R]", "t"),
    ("TLDGYGIHPKSIDLDNYFTARRLY [L24Y]", "f"),
    ("TLDGYGIHPKQIDLDNYFTARRLL [S11Q]", "f"),
    ("TLDGYGIHPKSIDLYNYFTARRLL [D15Y]", "f"),
    ("TLDGYGIHPKSIDLDNYFMARRLL [T19M]", "f"),
    ("TLNGYGIHPKSIDLDNYFTARRLL [D3N]", "t"),
    ("TLDGYIIHPKSIDLDNYFTARRLL [G6I]", "f"),
    ("TLDGYGIHPKSSDLDNYFTARRLL [I12S]", "f"),
    ("TLDCYGIHPKSIDLDNYFTARRLL [G4C]", "f"),
    ("TLDGYGIHPKSIDLDNDFTARRLL [Y17D]", "t"),
    ("TLDGYGIHPKSIDLDNYFTPRRLL [A20P]", "f"),
    ("TYDGYGIHPKSIDLDNYFTARRLL [L2Y]", "f"),
    ("TLDGYGIHPKSIDLDNYPTARRLL [F18P]", "t"),
    ("TLDGFGIHPKSIDLDNYFTARRLL [Y5F]", "f"),
    ("TLDGYGGHPKSIDLDNYFTARRLL [I7G]", "f"),
    ("TLDGYGIHPVSIDLDNYFTARRLL [K10V]", "f"),
    ("TLDGYGIMPKSIDLDNYFTARRLL [H8M]", "f"),
    ("TLDGYGIHPKSIDLDNYFTARRFL [L23F]", "f"),
    ("TLDGYGIHPGSIDLDNYFTARRLL [K10G]", "f"),
    ("TLDGYDIHPKSIDLDNYFTARRLL [G6D]", "f"),
    ("TLDGNGIHPKSIDLDNYFTARRLL [Y5N]", "t"),
    ("TLDGYGIHPRSIDLDNYFTARRLL [K10R]", "t"),
    ("TPDGYGIHPKSIDLDNYFTARRLL [L2P]", "t"),
    ("WLDGYGIHPKSIDLDNYFTARRLL [T1W]", "t"),
    ("FLDGYGIHPKSIDLDNYFTARRLL [T1F]", "f"),
    ("TLDGYGIHPKSIDLDNYFTARRAL [L23A]", "t"),
    ("TDDGYGIHPKSIDLDNYFTARRLL [L2D]", "t"),
    ("TLDGYGIHPKSISLDNYFTARRLL [D13S]", "f"),
    ("TLDVYGIHPKSIDLDNYFTARRLL [G4V]", "f"),
    ("TLLGYGIHPKSIDLDNYFTARRLL [D3L]", "t"),
    ("TLDGYGIHPKVIDLDNYFTARRLL [S11V]", "t"),
]
